system: Bacilus subtilis PCI 219; assay: Antibacterial spectra, MIC; type: cell-based; conditions: Bacillus subtilis, PCI219
Recorded measurements of MIC, one per entry

See these solved cases before continuing.
>>> reported_measurement("COc1c(N2CCNC(C)C2)c(F)cc2c(=O)c(C(=O)O)cn(C3CC3)c12 (stereo not shown)")
"0.025 µg/mL"
>>> reported_measurement("CCOc1c(N2CCNCC2)c(F)cc2c(=O)c(C(=O)O)cn(C3CC3)c12")
"≤ 0.05 µg/mL"
>>> reported_measurement("COc1c(N2CCC(N)C2)c(F)cc2c(=O)c(C(=O)O)cn(C3CC3)c12 (stereo not shown)")
"0.025 µg/mL"

According to the records, this compound COc1c(N2CCC(N)C2)c(F)c(N)c2c(=O)c(C(=O)O)cn(C3CC3)c12 (stereo not shown) displays MIC of 0.0125 µg/mL

Field MIC (entry CNCC1CCN(c2c(F)cc3c(=O)c(C(=O)O)cn(C4CC4)c3c2OC)C1 (stereo not shown) ) reads 0.025 µg/mL

Lab note: measured MIC of "COc1c(N2CCNCC2)c(F)c(N)c2c(=O)c(C(=O)O)cn(C3CC3)c12" was 0.025 µg/mL

The compound "COc1c(N2CCN(C)CC2)c(F)cc2c(=O)c(C(=O)O)cn(C3CC3)c12" showed MIC equal to 0.025 µg/mL
